This listing pairs compounds with measured melting point.

A selection of reference data follows.
* CCOC(=O)c1sccc1S(N)(=O)=O | 136 °C
* N=C(N)N1CCc2[nH]cnc2C1 | 310 °C
* CCCOc1ccc([N+](=O)[O-])cc1C=O | 51 to 52 °C
* CCCCn1c(=O)n(CCC)c(=O)c2[nH]c(C)nc21 | 174 to 175 °C
* O=C1CCC2=C1C(c1ccc(F)c(I)c1)C1=C(CCS1)N2 (stereo unspecified) | > 250 °C

Return reported melting point; argument: COc1ccccc1CC(C)NCC(O)c1cccc(Cl)c1 (stereo unspecified)
85 to 87 °C

Would you mind doing CCc1noc(CC(O)c2ccccc2)c1C(=O)NC (stereo unspecified) as well?
135 to 137 °C

Would you mind doing `COc1cc2ccc3c4cc(OCc5ccccc5)c(OC)cc4nnc3c2cc1OC` as well?
244 to 246 °C

Would you mind doing CC(=O)SCC(Cc1ccc(-c2ccccc2)cc1)C(=O)N[C@@H](CSCc1ccc(C)cc1)C(=O)O (stereo partly specified) as well?
131 to 135 °C

Would you mind doing `O=C(O)CCCOc1cccc(CCCCCCOc2ccc3c(c2CCCc2ccccc2)CCCC3=O)c1CCC(=O)O` as well?
89 to 91 °C

====

PARAMETER_MEASURED: melting point

A selection of reference data follows.
- Cc1ccc2c(c1)C(=O)C(=O)N2CC(N)=O: 171 to 172 °C
- COc1ccc(C(=O)Nc2ccc(C(C)(C)C#N)cc2)c(Cl)c1OC: 195 to 198 °C
- ClCc1ccc(-c2nc3cccc(Cl)c3o2)cc1: 92 to 93 °C

Return reported melting point; argument: `C[C@@H](c1ccc(-c2ccn(CC(F)(F)F)c(=O)c2)cc1)N1CC[C@](CC(C)(C)O)(c2ccccc2)OC1=O`
144 to 146 °C

====

This listing pairs compounds with measured melting point.

A selection of reference data follows.
- O=C(O)c1cc(C(F)(F)F)c(F)c(F)c1F: 82 to 84 °C
- Cc1cc2c(C)cc(-c3ccccc3Cl)nc2nc1-c1ccccc1: 151 to 153 °C
- CC1(C)CCSc2ccc(Br)cc21: 51 °C
- COc1ccc(-c2nc(N3CCN(C)CC3)c3c(C)c(C#N)sc3n2)cc1OC: 208 to 209 °C

Return reported melting point; argument: `COc1ccc(-c2cn(O)c(=S)[nH]2)cc1`
160 °C

Would you mind doing CCOC(=O)C(CC)C(=O)Nc1cc(Cl)cc(Cl)c1 (configuration not stated) as well?
96.5 to 98 °C

Would you mind doing `CCCc1c(S)ccc2c(=O)c(C(=O)OC)coc12` as well?
98 to 99 °C

====

PARAMETER_MEASURED: melting point

Return reported melting point; argument: `Cc1ccc(N(c2ccccc2)c2ccc3c4c(cccc24)CC3)cc1`
147 to 148 °C

Would you mind doing CC1C(=O)c2ccccc2C1NCCc1ccccc1 (stereo not given) as well?
82 to 83 °C

Would you mind doing `CCOCc1nc2c(N)nc3cc(Br)cnc3c2n1CC(C)(C)NC(=O)OC(C)(C)C` as well?
176 to 178 °C

Would you mind doing `O=CC(=Cc1ccccc1Br)C(C=O)=Cc1ccccc1Br` as well?
194 to 195 °C

Would you mind doing O=C(O)CC1CCCN(C(=O)c2ccc(N3CCCC3)cc2Cl)c2ccccc21 (stereo not given) as well?
191 to 192 °C

====

This listing pairs compounds with measured melting point.

A selection of reference data follows.
* COC(=O)CNC(=O)c1ccc(C(=O)NS(=O)(=O)c2ccc(OC)cc2)cn1 | 150 to 152 °C
* CCn1cc(C(=O)O)c(=O)c2cc(F)c(N3CCCC3)nc21 | 299 to 300 °C
* CC1(C)Oc2cccnc2C2OC21 (stereo not given) | 65 to 67 °C
* CCOC(=O)CCNC(=O)C(Cc1ccc(-c2ccccc2)cc1)N(CP(=O)(O)O)C(OC(=O)Cc1ccccc1)C(C)C (stereo not given) | 148 to 150 °C

Return reported melting point; argument: CCCN1C(=O)COc2ccc(N3C(=O)C(C)=C(C)C3O)cc21 (stereo not given)
124 to 125 °C

====

This listing pairs molecules with measured melting point.

Return reported melting point; argument: `OC1(c2ccc3c(c2)OCO3)CCNCC1`
135 to 138 °C

Would you mind doing `O=C(O)Cn1cc(Cc2nc3c(F)c(F)cc(F)c3s2)c2cccc(Cl)c21` as well?
228 to 230 °C

Would you mind doing CN1CCOC(CN2C(=O)C3(COc4cc5c(cc43)OCCO5)c3ccccc32)C1 (stereo not given) as well?
85 to 90 °C

Would you mind doing `CCN1Cc2cccnc2N(c2cccc(C(F)(F)F)c2)C1=O` as well?
155 to 157 °C

Would you mind doing O=C1CCC2=C1C(c1ccc([N+](=O)[O-])s1)C1=C(CCS1)N2 (stereo not given) as well?
251 to 254 °C

Would you mind doing `COc1cc(OS(C)(=O)=O)ccc1C1=NC2=NC=NC(=O)C2=N1` as well?
288 to 291 °C

Would you mind doing `O=c1[nH]c2ncccc2c(=O)n1CCCCCCn1c(=O)[nH]c2ncccc2c1=O` as well?
324 to 328 °C

Would you mind doing `Nc1ccc2c(OCc3nc4ccccc4s3)cccc2c1` as well?
141 to 143 °C

Would you mind doing `Cn1cc(C2=C(c3cn(CCCNCCN)c4ccccc34)C(=O)NC2=O)c2ccccc21` as well?
190 to 193 °C

Would you mind doing `CCN(CC)C1=CC(=O)C(=O)C=C1N(CC)CC` as well?
100 to 103 °C

Would you mind doing `COc1cc(Nc2nccc(Oc3ccccc3)n2)cc(OC)c1OC` as well?
149 °C

Would you mind doing `COC(=O)SN(C(=O)NC(=O)c1c(F)cccc1F)c1ccc(Oc2ccc(C(F)(F)F)cc2Cl)cc1` as well?
108 to 109 °C

====

PARAMETER_MEASURED: melting point

Return reported melting point; argument: `Brc1ccc(N2CCN(c3ccncc3)CC2)nc1`
176 to 180 °C

Would you mind doing CC(Br)c1ccc2onc(-c3ccc(Cl)cc3)c2c1 (configuration not stated) as well?
111 to 116 °C

Would you mind doing `Cn1cc(C(=O)NCc2ccc(Cl)cc2)c(=O)c2cc(C#CCO)cc(F)c21` as well?
186 to 188 °C

Would you mind doing CC(=O)NC1=NCC(c2ccccc2)CN1 (configuration not stated) as well?
246 to 249 °C

Would you mind doing `NCCc1cn(C(c2ccccc2)(c2ccccc2)c2ccccc2)cn1` as well?
111 to 113 °C

Would you mind doing CCOC(=O)C1CCC2(CCN(S(=O)(=O)c3ccc(C)cc3)c3ccccc3C2)C1=O (configuration not stated) as well?
114 to 116 °C

Would you mind doing `O=C1Cc2c(Cl)cccc2Sc2ccccc21` as well?
122 to 125 °C

Would you mind doing `COc1ccc(-c2ccccc2)c2ccc(C)nc12` as well?
133 to 134 °C

Would you mind doing `CCCCc1nc(Cl)c(CC(=O)OCC)c(Cc2ccc(-c3ccccc3C#N)cc2)n1` as well?
66 °C

Would you mind doing `N#Cc1ccc([C@H]2CC[C@H](O)CC2)cc1` as well?
120 to 122 °C

Would you mind doing `CC(C)C(=O)OCCn1nc(-c2cc(C(C)(C)C)c(O)c(C(C)(C)C)c2)c2cccnc21` as well?
94 to 96 °C

Would you mind doing `CCc1noc(-c2cn(-c3cccc(OC(C)C)c3)cn2)n1` as well?
107 °C

Would you mind doing `Cc1cc(C(Cl)=NO)ccc1Br` as well?
77 to 78 °C

Would you mind doing CN1C(=O)N(c2ccccc2)S[N+]1(C)[O-] (configuration not stated) as well?
77 to 79 °C

Would you mind doing CCOC(=O)C1=C(C)N(C(C)=O)C(c2csc(C)n2)=NC1c1ccccc1 (configuration not stated) as well?
140 to 142 °C

Would you mind doing CCOC(=O)C1=C(COCc2nnc(C)s2)NC(C)=C(C(=O)OC)C1c1cccc(Cl)c1Cl (configuration not stated) as well?
140 to 144 °C

====

This listing pairs molecules with measured melting point.

A selection of reference data follows.
* COCCc1nc2c(N)nc3ccccc3c2n1CCCCCC(=O)N1CCOCC1 | 131 to 132 °C
* COC(=O)C1=C(C)NC(C)=C(C(=O)OCCCl)C1c1cccc([N+](=O)[O-])c1 (stereo not given) | 129 to 131 °C
* CCOC(=O)c1cc2ccc(Oc3ccc([N+](=O)[O-])cc3)cc2oc1=O | 163 °C
* O=C(Cc1cccc2ccccc12)NCc1cccc2c1C(=O)N(C1CCC(=O)NC1=O)C2=O (stereo not given) | 187 to 189 °C
* Cc1ccc2c(n1)C(=O)C(N)=C(Cl)C2=O | 270 °C
* N#Cc1cc(C#N)cc(Oc2ccnc(Oc3cc(Cl)cc(Cl)c3)n2)c1 | 196 °C

Please turn your attention to the following entry.
Return reported melting point; argument: CC(C)N1C(=O)C(NC(=O)CCC2CCCCC2)N=C(N(C)C)c2ccccc21 (stereo not given)
209 to 210 °C
